# TARGET_ENTITY: MAP kinase-activated protein kinase 5 (Homo sapiens)
# ASSAY_INFO: Inhibition of His-tagged human PRAK expressed in Sf9 cells at 1 uM; values are per cent of control
RECORDED_ENDPOINT: residual activity (%)
The reply should contain only the number, in %.

INPUT: Give the value of residual activity reported for the following: Cn1c2ccccc2c2c3c(c4c5ccccc5n(CCC#N)c4c21)CNC3=O
OUTPUT: 76

INPUT: Supply measured residual activity of CN1C(=O)C(c2c[nH]c3ccccc23)=C(c2c[nH]c3ccccc23)C1=O in your reply.
OUTPUT: 85

INPUT: Please look at this compound and report its residual activity: Cn1cc(C2=C(c3c4n(c5ccccc35)CCC(CN)C4)C(=O)NC2=O)c2ccccc21 (stereo not given)
OUTPUT: 101

INPUT: Respond only with residual activity recorded for CN(C)CCCn1cc(C2=C(c3c[nH]c4ccccc34)C(=O)NC2=O)c2ccccc21
OUTPUT: 98

INPUT: Identify measured residual activity associated with NCCCn1cc(C2=C(c3c[nH]c4ccccc34)C(=O)NC2=O)c2ccccc21
OUTPUT: 89

INPUT: Give the measured residual activity for Cn1cc(C2=C(c3cn(CCCSC(=N)N)c4ccccc34)C(=O)NC2=O)c2ccccc21 [BISINDOLYLMALEIMIDE IX]
OUTPUT: 96

INPUT: Please report residual activity for the following compound: Cn1cc(C2=C(c3cn(CCCN)c4ccccc34)C(=O)NC2=O)c2ccccc21
OUTPUT: 102

INPUT: Provide one value: measured residual activity of COC[C@H]1OC(=O)c2coc3c2[C@@]1(C)C1=C(C3=O)[C@@H]2CCC(=O)[C@@]2(C)C[C@H]1OC(C)=O
OUTPUT: 85

INPUT: Please look at this compound and report its residual activity: O=C1NC(=O)C(c2c[nH]c3ccccc23)=C1c1c[nH]c2ccccc12
OUTPUT: 96

INPUT: Provide measured residual activity value, entry: CO[C@H]1C[C@@H]2CC[C@@H](C)[C@@](O)(O2)C(=O)C(=O)N2CCCC[C@H]2C(=O)O[C@H]([C@H](C)C[C@@H]2CC[C@@H](O)[C@H](OC)C2)CC(=O)[C@H](C)/C=C(\C)[C@@H](O)[C@@H](OC)C(=O)[C@H](C)C[C@H](C)/C=C/C=C/C=C/1C
OUTPUT: 74

====

# TARGET_ENTITY: Rho-associated protein kinase 2 (Rattus norvegicus)
# ASSAY_INFO: Inhibition of rat ROCK2 expressed in Sf9 cells at 1 uM
# REPORTED_CONDITIONS: values are per cent of control
Lab note: cut-off is 90%. Strictly less in residual activity is TRUE. Exactly 90% or more is FALSE.

INPUT: # TODO verify residual activity < 90% strictly for this molecule: Cn1cc(C2=C(c3c4n(c5ccccc35)CCC(CN)C4)C(=O)NC2=O)c2ccccc21 (stereo not given)
OUTPUT: FALSE

INPUT: Quick check: does Cn1cc(C2=C(c3cn(CCCN)c4ccccc34)C(=O)NC2=O)c2ccccc21 have residual activity under 90%?
OUTPUT: FALSE

INPUT: Strictly below 90%: is that where residual activity of CN1C(=O)C(c2c[nH]c3ccccc23)=C(c2c[nH]c3ccccc23)C1=O sits?
OUTPUT: FALSE

INPUT: Dear reviewer, please state whether Cn1c2ccccc2c2c3c(c4c5ccccc5n(CCC#N)c4c21)CNC3=O has residual activity strictly beneath 90%.
OUTPUT: TRUE

INPUT: Please state whether residual activity is below 90% for O=C1NC(=O)C(c2c[nH]c3ccccc23)=C1c1c[nH]c2ccccc12
OUTPUT: FALSE
